The following sequences are listed with their measured self-aminoacylation values.
- System: biotinyl-Val-oxazolone
- protocol-notes: self-aminoacylation, catalytic enhancement (BVO) (fold over background); higher = more active; k-Seq, kA / k0A0; sequences stand for … in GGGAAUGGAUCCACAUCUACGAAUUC…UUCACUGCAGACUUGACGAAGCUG
Variants at the floor of the assay were thinned out.
Returns: the value as a bare number; no unit string appended.

# annotated cases, reported self-aminoacylation shown
sequence-text | assay-target | self-aminoacylation
CCACACGCCAAGCAAUCGGUC [Fam1B.1 aminoacylation ribozyme variant] | biotinyl-Val-oxazolone | 1.23
AGUACCCUGGUCAUAGAGUGA [Fam2.1 aminoacylation ribozyme variant] | biotinyl-Val-oxazolone | 2.48
AUUAUCCUGGUCAUCGAGUGA [Fam2.1 aminoacylation ribozyme variant] | biotinyl-Val-oxazolone | 6.5
AGGUUCGCUAAUAGUCGCAAG [Fam3.1 aminoacylation ribozyme variant] | biotinyl-Val-oxazolone | 2.34
CCACUUCGAACAAUCGGUCUG [Fam1A.1 aminoacylation ribozyme variant] | biotinyl-Val-oxazolone | 1.24
AUUACCUUGGUUAUCGAGUGA [Fam2.1 aminoacylation ribozyme variant] | biotinyl-Val-oxazolone | 4.03
AUUACCGUGGUCAUCGGGUGA [Fam2.1 aminoacylation ribozyme variant] | biotinyl-Val-oxazolone | 8.1
CUACUUUAAACAAUCGGACUG [Fam1A.1 aminoacylation ribozyme variant] | biotinyl-Val-oxazolone | 0.757

Kindly review the next sequence as well.
Query: Return reported self-aminoacylation. Input sequence: UAUACCCUGGUCAUCGAGUGA [Fam2.1 aminoacylation ribozyme variant]
Response: 7.52
